ASSAY_METHOD_TEXT: Binding affinity to G-protein coupled receptor MthW12S mutant of Drosophila melanogaster 300 nM by fluorescence microscopy
EXPERIMENTAL_READOUT: pKd
Numbers only, as −log10 of the molar value.

Please fill in: pKd reported for `H-RLVWIVRSRHFGPRLRMALLGSDRKMW-OH` = 7.82

----------
Assignment: determine reported Kd for the given substances.
TARGET_OR_TEST_SYSTEM: G-protein coupled receptor Mth (Drosophila melanogaster, UniProt O97148)
Sequence (O97148 whole entry, the tested form may be a part): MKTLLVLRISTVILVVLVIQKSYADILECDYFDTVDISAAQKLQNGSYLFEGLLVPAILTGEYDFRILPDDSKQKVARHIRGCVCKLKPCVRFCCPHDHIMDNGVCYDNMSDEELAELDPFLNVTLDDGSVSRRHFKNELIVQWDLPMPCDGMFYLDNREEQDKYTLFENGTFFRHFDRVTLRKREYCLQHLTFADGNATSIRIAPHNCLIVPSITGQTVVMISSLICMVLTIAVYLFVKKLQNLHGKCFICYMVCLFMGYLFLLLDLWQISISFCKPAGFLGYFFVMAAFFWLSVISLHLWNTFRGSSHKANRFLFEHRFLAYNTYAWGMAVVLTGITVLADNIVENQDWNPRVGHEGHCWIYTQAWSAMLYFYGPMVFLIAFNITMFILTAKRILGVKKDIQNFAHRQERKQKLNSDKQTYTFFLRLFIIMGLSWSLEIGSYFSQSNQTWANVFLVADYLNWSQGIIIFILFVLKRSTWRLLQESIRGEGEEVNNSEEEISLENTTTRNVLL
ASSAY_METHOD_TEXT: Binding affinity to Drosophila melanogaster Mth ectodomain
Answers are plain numbers, in nM.

# example entries with known answers
{"SUBSTANCE": "H-NVSWGSFPSSWLQRYYLAKRREADVTL-OH", "Kd (nM)": 31}
{"SUBSTANCE": "H-RLVWIVRSRHFGPRLRMALLGSDRKMW-OH", "Kd (nM)": 18}

Then there is this substance:
Please fill in: Kd reported for `H-VRIGYTSKPGGMNPGNSYTMSIIRMLI-OH` = 326
